Biological target: Prostaglandin G/H synthase 1 (Homo sapiens, UniProt P23219)
Sequence (P23219 whole entry): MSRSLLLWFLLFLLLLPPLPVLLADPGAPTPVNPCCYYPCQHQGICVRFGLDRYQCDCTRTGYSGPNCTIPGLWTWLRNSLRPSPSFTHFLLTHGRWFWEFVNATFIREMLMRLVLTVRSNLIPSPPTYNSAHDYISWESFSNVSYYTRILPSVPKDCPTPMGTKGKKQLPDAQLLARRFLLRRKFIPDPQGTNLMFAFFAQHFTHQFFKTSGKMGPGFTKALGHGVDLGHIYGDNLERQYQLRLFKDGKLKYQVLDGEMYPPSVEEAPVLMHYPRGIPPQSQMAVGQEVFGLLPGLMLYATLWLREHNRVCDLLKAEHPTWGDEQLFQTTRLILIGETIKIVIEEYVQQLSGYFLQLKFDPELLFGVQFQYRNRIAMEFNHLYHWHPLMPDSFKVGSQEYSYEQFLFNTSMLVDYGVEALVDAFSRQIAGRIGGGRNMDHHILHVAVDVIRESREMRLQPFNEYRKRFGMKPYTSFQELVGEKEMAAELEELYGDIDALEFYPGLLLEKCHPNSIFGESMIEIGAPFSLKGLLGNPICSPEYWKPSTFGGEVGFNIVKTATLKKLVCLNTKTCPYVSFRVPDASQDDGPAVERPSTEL
Test: Percentage of inhibition of Prostaglandin G/H synthase 1 activity in human whole blood (HWB) at 1 uM
Assay type: tissue-based
parameter: inhibition (%)

a. Cc1c(C(F)(F)F)cnc2c(-c3ccc(F)cc3)c(-c3ccc(S(C)(=O)=O)cc3)nn12
b. CCc1cnc2c(-c3ccc(F)cc3)c(-c3ccc(S(C)(=O)=O)cc3)nn2c1C
c. Cc1c(Br)cnc2c(-c3ccc(F)cc3)c(-c3ccc(S(C)(=O)=O)cc3)nn12
d. CCCCc1cc(C)n2nc(-c3ccc(S(C)(=O)=O)cc3)c(-c3ccc(F)cc3)c2n1
sort_by: inhibition; order: ascending; scope: items listed above Reply with the item labels sorted in the order that was asked for.
b, d, c, a

* * *

Target: Prostaglandin G/H synthase 2 (Homo sapiens) (UniProt P35354)
Sequence (whole entry): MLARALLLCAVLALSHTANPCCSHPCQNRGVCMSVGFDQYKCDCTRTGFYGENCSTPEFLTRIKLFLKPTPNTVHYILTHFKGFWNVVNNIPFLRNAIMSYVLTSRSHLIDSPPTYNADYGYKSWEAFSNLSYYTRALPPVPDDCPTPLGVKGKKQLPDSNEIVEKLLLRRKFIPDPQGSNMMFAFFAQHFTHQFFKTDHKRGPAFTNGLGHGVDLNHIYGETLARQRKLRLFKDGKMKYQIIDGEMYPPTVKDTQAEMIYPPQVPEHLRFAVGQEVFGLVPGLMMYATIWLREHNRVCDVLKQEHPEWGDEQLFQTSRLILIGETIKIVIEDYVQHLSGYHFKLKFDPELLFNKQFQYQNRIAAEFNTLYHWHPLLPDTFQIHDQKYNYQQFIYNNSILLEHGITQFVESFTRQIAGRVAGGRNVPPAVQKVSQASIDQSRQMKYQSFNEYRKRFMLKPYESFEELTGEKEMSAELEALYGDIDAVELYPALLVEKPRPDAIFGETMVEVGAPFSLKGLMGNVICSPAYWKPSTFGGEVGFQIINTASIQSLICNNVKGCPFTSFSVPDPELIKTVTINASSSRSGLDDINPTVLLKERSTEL
Experiment: Percentage of inhibition of Prostaglandin G/H synthase 2 activity in human whole blood (HWB) at 1 uM
Type: tissue-based
parameter: inhibition (%)

{"smiles-input": "CCc1nnc2c(-c3ccc(F)cc3)c(-c3ccc(S(C)(=O)=O)cc3)nn2c1CC", "system-under-test": "Prostaglandin G/H synthase 2 (Homo sapiens) (UniProt P35354)", "parameter": "inhibition", "value-reported": 50.9}
{"smiles-input": "CS(=O)(=O)c1ccc(-c2nn3c(-c4ccccc4)ccnc3c2-c2ccc(F)cc2)cc1", "system-under-test": "Prostaglandin G/H synthase 2 (Homo sapiens) (UniProt P35354)", "parameter": "inhibition", "value-reported": 0}
{"smiles-input": "CC(=O)c1cnc2c(-c3ccc(F)cc3)c(-c3ccc(S(C)(=O)=O)cc3)nn2c1C", "system-under-test": "Prostaglandin G/H synthase 2 (Homo sapiens) (UniProt P35354)", "parameter": "inhibition", "value-reported": 60.8}

P. CCc1cnc2c(-c3ccc(F)cc3)c(-c3ccc(S(C)(=O)=O)cc3)nn2c1C
Q. Cc1cnc2c(-c3ccc(F)cc3)c(-c3ccc(S(N)(=O)=O)cc3)nn2c1C
Please compare: P and Q . Report which one has the smaller inhibition value. Could you answer with the label of the item you picked?
Q
(Q: 22.5%, P: 50.3%)

* * *

Target: Prostaglandin G/H synthase 1 (Homo sapiens, UniProt P23219)
Test: Percentage of inhibition of Prostaglandin G/H synthase 1 activity in human whole blood (HWB) at 10 uM
Type: tissue-based
parameter: inhibition (%)

{"smiles-input": "CCCc1c(C)nnc2c(-c3ccc(F)cc3)c(-c3ccc(S(C)(=O)=O)cc3)nn12", "system-under-test": "Prostaglandin G/H synthase 1 (Homo sapiens, UniProt P23219)", "inhibition, %": 18.7}

I. Cc1cc(C(F)(F)F)nc2c(-c3ccc(F)cc3)c(-c3ccc(S(C)(=O)=O)cc3)nn12
II. Cc1c(CO)cnc2c(-c3ccc(F)cc3)c(-c3ccc(S(C)(=O)=O)cc3)nn12
III. CCc1c(C)cnc2c(-c3ccc(F)cc3)c(-c3ccc(S(C)(=O)=O)cc3)nn12
# ascending order, key=inhibition Reply with the item labels sorted in the order that was asked for.
I, II, III

* * *

Molecular target: Prostaglandin G/H synthase 2 (Homo sapiens)
Test: Percentage of inhibition of Prostaglandin G/H synthase 2 activity in human whole blood (HWB) at 1 uM
Format: tissue-based
parameter: inhibition (%)

{"smiles-input": "CCCc1c(C(=O)O)cnc2c(-c3ccc(F)cc3)c(-c3ccc(S(C)(=O)=O)cc3)nn12", "inhibition (%)": 31.9}
{"smiles-input": "Cc1ccc(-c2c(-c3ccc(S(C)(=O)=O)cc3)nn3c(C)c(C)cnc23)cc1", "inhibition (%)": 87.6}
{"smiles-input": "CCc1nnc2c(-c3ccc(F)cc3)c(-c3ccc(S(C)(=O)=O)cc3)nn2c1C", "inhibition (%)": 74.9}

I. CCOC(=O)c1cnc2c(-c3ccc(F)cc3)c(-c3ccc(S(C)(=O)=O)cc3)nn2c1C
II. CCCc1c(C)nnc2c(-c3ccc(F)cc3)c(-c3ccc(S(C)(=O)=O)cc3)nn12
Please compare: I and II . Report which one has the smaller inhibition value. Could you answer with the label of the item you picked?
II
(II: 17.9%, I: 40.5%)

* * *

Target: Prostaglandin G/H synthase 1 (Homo sapiens, UniProt P23219)
Assay: Percentage of inhibition of Prostaglandin G/H synthase 1 activity in human whole blood (HWB) at 10 uM
Type: tissue-based
parameter: inhibition (%)

Some compounds with known inhibition results, for comparison:
{"smiles-input": "COc1cc(C)nc2c(-c3ccc(F)cc3)c(-c3ccc(S(C)(=O)=O)cc3)nn12", "unit-descriptor": "%", "inhibition": 0}
{"smiles-input": "CCCCc1nc(C)nc2c(-c3ccc(F)cc3)c(-c3ccc(S(C)(=O)=O)cc3)nn12", "unit-descriptor": "%", "inhibition": 7.7}
{"smiles-input": "CS(=O)(=O)c1ccc(-c2nn3c4c(cnc3c2-c2ccc(F)cc2)C(=O)CCC4)cc1", "unit-descriptor": "%", "inhibition": 0}
{"smiles-input": "CCCc1c(C(=O)O)cnc2c(-c3ccc(F)cc3)c(-c3ccc(S(C)(=O)=O)cc3)nn12", "unit-descriptor": "%", "inhibition": 7.4}
{"smiles-input": "CCCc1ccnc2c(-c3ccc(F)cc3)c(-c3ccc(S(C)(=O)=O)cc3)nn12", "unit-descriptor": "%", "inhibition": 37.3}

1. CCc1nnc2c(-c3ccc(F)cc3)c(-c3ccc(S(C)(=O)=O)cc3)nn2c1C
2. CS(=O)(=O)c1ccc(-c2nc3cnccc3n2-c2ccc(F)cc2)cc1
Select one: 1 or 2 . Criterion: greater recorded inhibition. Could you answer with the label of the item you picked?
1
(1: 61.9%, 2: 34.3%)

A. Cc1ccn2c(-c3ccc(F)cc3)c(-c3ccc(S(C)(=O)=O)cc3)nc2c1C
B. Cc1c(C(=O)O)cnc2c(-c3ccc(F)cc3)c(-c3ccc(S(C)(=O)=O)cc3)nn12
C. Cc1c(C(F)(F)F)cnc2c(-c3ccc(F)cc3)c(-c3ccc(S(C)(=O)=O)cc3)nn12
D. Cc1ccn2nc(-c3ccc(S(C)(=O)=O)cc3)c(-c3ccc(F)cc3)c2n1
# desc sort on inhibition across 4 compounds Reply with the item labels sorted in the order that was asked for.
C, D, B, A

P. CS(=O)(=O)c1ccc(-c2nn3c(C(F)(F)F)ccnc3c2-c2ccc(F)cc2)cc1
Q. CS(=O)(=O)c1ccc(-c2nc3cccnn3c2-c2ccc(F)cc2)cc1
Select one: P or Q . Criterion: greater recorded inhibition. Could you answer with the label of the item you picked?
Q
(Q: 47%, P: 0%)

I. Cc1cnc2c(-c3ccc(F)cc3)c(-c3ccc(S(C)(=O)=O)cc3)nn2c1CO
II. Cc1c(CF)cnc2c(-c3ccc(F)cc3)c(-c3ccc(S(C)(=O)=O)cc3)nn12
III. CS(=O)(=O)c1ccc(-c2nn3c4c(cnc3c2-c2ccc(F)cc2)C(=O)CC4)cc1
IV. Cc1cc2c(nc(-c3ccc(S(C)(=O)=O)cc3)n2-c2ccc(F)cc2)c(C)n1
# ascending order, key=inhibition Reply with the item labels sorted in the order that was asked for.
IV, II, III, I

* * *

Biological target: Prostaglandin G/H synthase 2 (Homo sapiens)
Test: Percentage of inhibition of Prostaglandin G/H synthase 2 activity in human whole blood (HWB) at 1 uM
Format: tissue-based
parameter: inhibition (%)

{"smiles-input": "Cc1nc(C)n2nc(-c3ccc(S(C)(=O)=O)cc3)c(-c3ccc(F)cc3)c2n1", "parameter": "inhibition", "value-reported": 18.1}
{"smiles-input": "Cc1ccn2c(-c3ccc(F)cc3)c(-c3ccc(S(C)(=O)=O)cc3)nc2c1C", "parameter": "inhibition", "value-reported": 59.3}

P. CS(=O)(=O)c1ccc(-c2nn3c4c(cnc3c2-c2ccc(F)cc2)CCCC4)cc1
Q. CCCc1ccnc2c(-c3ccc(F)cc3)c(-c3ccc(S(C)(=O)=O)cc3)nn12
Please compare: P and Q . Report which one has the smaller inhibition value. Could you answer with the label of the item you picked?
Q
